Ref: paper PMC9169922

I'd be grateful if you could share measured pKd for these entries.
# Target Entity: DNA polymerase alpha catalytic domain (PolαCD) (human, UniProt P09884 338-1250)
# Sequence (P09884 338-1250): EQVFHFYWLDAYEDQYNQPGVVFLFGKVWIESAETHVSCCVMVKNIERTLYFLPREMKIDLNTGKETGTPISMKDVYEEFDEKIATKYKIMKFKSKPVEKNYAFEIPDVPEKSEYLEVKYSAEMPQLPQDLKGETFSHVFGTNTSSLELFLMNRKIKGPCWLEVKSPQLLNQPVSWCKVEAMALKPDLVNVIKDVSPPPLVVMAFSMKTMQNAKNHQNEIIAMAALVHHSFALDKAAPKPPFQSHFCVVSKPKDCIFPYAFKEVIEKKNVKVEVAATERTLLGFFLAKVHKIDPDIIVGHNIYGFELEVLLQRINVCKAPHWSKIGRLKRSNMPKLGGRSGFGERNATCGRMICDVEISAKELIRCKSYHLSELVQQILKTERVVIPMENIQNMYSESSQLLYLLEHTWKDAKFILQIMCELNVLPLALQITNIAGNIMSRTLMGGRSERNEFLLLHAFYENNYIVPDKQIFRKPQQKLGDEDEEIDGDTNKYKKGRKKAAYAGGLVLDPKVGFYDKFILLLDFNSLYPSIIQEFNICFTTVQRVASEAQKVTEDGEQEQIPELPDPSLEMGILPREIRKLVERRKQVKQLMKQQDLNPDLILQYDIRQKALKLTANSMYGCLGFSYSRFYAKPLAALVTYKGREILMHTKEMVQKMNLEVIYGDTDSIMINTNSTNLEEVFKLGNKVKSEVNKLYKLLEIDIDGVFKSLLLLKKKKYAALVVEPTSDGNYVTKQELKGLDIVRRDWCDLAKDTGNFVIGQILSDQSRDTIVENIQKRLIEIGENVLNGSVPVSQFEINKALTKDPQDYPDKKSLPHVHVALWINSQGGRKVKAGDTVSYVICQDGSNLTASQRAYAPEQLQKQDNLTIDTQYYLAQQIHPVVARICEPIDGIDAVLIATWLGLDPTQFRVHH
# Assay Procedure: BLI
Answers are plain numbers, as −log10 of the molar value.

For each of the binders below, state pKd.
1. T-C mismatch template:primer (dsDNA, primer 3'-terminal dideoxycytidine) DNA 1: AATACATAATCGCTCCAGGCAAT DNA 2: GCCTGGAGCGC
2. C-C mismatch template:primer (dsDNA, primer 3'-terminal dideoxycytidine) DNA 1: AATACATAACCGCTCCAGGCAAT DNA 2: GCCTGGAGCGC
3. A-C mismatch template:primer (dsDNA, primer 3'-terminal dideoxycytidine) DNA 1: AATACATAAACGCTCCAGGCAAT DNA 2: GCCTGGAGCGC
4. G-C template:primer (matched) (dsDNA, primer 3'-terminal dideoxycytidine) DNA 1: AATACATAAGCGCTCCAGGCAAT DNA 2: GCCTGGAGCGC

A.
[6.34, 6.19, 6.01, 5.85]
